Where these numbers come from: ChEMBL document CHEMBL3526059

Provide the recorded half-life at 10 µM for the entries that follow.
Experiment: Half life in phosphate buffer at 10 uM at pH 7.4 by LC/TOF-MS analysis
Assay type: physicochemical

Consider the molecule O=C(Cc1ccccc1Nc1c(Cl)cccc1Cl)O[C@@H]1O[C@H](C(=O)O)[C@@H](O)[C@H](O)[C@H]1O and give its recorded half-life at 10 µM.
0.537 h

In one line, give reported half-life at 10 µM of the entry O=C(O)[C@H]1O[C@@H](OC(=O)[C@H](c2ccccc2Cl)N2CCc3sccc3C2)[C@H](O)[C@@H](O)[C@@H]1O .
5.02 h

Could you please provide reported half-life at 10 µM for CCCC(CCC)C(=O)O[C@@H]1O[C@H](C(=O)O)[C@@H](O)[C@H](O)[C@H]1O ? Thanks!
15.2 h

Output half-life at 10 µM of COc1ccc2cc([C@@H](C)C(=O)O[C@@H]3O[C@H](C(=O)O)[C@@H](O)[C@H](O)[C@H]3O)ccc2c1
0.996 h

State its half-life at 10 µM for this molecule: O=C(O[C@@H]1O[C@H](C(=O)O)[C@@H](O)[C@H](O)[C@H]1O)c1cn(Cc2c(F)cccc2F)nn1
0.252 h

Let me know recorded half-life at 10 µM for CC(C)Cc1ccc(C(C)C(=O)O[C@@H]2O[C@H](C(=O)O)[C@@H](O)[C@H](O)[C@H]2O)cc1 (mixture of isomers) , thanks.
3.67 h

Supply half-life at 10 µM value. Item: COc1ccc2cc([C@H](C)C(=O)O[C@@H]3O[C@H](C(=O)O)[C@@H](O)[C@H](O)[C@H]3O)ccc2c1
1.77 h

* * *

Biological target: Cocaine esterase (Homo sapiens)
Sequence (O00748 whole entry): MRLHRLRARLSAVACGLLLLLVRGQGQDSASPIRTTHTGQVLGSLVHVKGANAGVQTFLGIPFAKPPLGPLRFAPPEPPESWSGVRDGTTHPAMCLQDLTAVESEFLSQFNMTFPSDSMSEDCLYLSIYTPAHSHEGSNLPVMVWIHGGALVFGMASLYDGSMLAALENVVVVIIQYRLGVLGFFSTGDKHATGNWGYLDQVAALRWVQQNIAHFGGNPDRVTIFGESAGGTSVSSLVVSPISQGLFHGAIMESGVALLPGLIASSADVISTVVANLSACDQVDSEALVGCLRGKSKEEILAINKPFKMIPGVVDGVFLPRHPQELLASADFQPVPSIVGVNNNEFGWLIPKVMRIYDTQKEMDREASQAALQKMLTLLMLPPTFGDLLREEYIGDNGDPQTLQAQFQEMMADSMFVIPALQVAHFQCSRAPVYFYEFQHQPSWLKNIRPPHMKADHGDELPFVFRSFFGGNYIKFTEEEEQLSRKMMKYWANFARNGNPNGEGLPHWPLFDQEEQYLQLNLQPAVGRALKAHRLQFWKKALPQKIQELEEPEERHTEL
Assay: Inhibition of human CES2 assessed as hydrolysis of 4NPA to 4NP at 1 mM by spectrophotometric analysis
Settings: 1000 µM
measure.name: inhibition (INH)

O=C(O[C@@H]1O[C@H](C(=O)O)[C@@H](O)[C@H](O)[C@H]1O)c1cn(Cc2c(F)cccc2F)nn1; Not Active
CCCC(CCC)C(=O)O[C@@H]1O[C@H](C(=O)O)[C@@H](O)[C@H](O)[C@H]1O; Not Active
O=C(Cc1ccccc1Nc1c(Cl)cccc1Cl)O[C@@H]1O[C@H](C(=O)O)[C@@H](O)[C@H](O)[C@H]1O; Not Active

* * *

Experiment: Half life in buffer at pH 7.4 by 1H NMR spectroscopic analysis in presence of human urine
Format: physicochemical
Settings: buffer with human urine
measure.name: half-life (h)
Just the number please, in h, no unit attached.

Annotate the molecule CC(C)Cc1ccc(C(C)C(=O)O[C@@H]2O[C@H](C(=O)O)[C@@H](O)[C@H](O)[C@H]2O)cc1 (mixture of isomers) with its measured half-life.
3.5
